This collection of values is drawn from patent US20110053897A1.

biological target: Syk kinase (Homo sapiens, UniProt P43405); construct: purchased; assay: Syk kinase inhibition, Caliper LabChip off-chip mobility-shift kinase assay; type: biochemical; conditions: read-out: Syk Enzyme IC50
Hi! Could you tag entries with IC50 below 0.07 µM as 1, and those at or above as -1? Much appreciated.

Is IC50 strictly under 0.07 µM for the entry CN1CCC(c2ccc(Nc3nc(Nc4cnccn4)cc4ccn(C)c(=O)c34)cc2)CC1 [compound 344] ?
1

Is IC50 strictly under 0.07 µM for the entry COc1cncc(-c2cc3cc[nH]c(=O)c3c(Nc3ccc(C4CCN(C(C)C(=O)O)CC4)c(C)c3)n2)n1 (centres unmarked) [compound 117] ?
1

Is IC50 strictly under 0.07 µM for the entry CCn1ccc2cc(Nc3cnccn3)nc(NC(C)C)c2c1=O [compound 307] ?
1

Is IC50 strictly under 0.07 µM for the entry COCCN1CC(c2ccc(Nc3nc(-c4cncc(OC)n4)cc4cc[nH]c(=O)c34)cc2)C1 [compound 150] ?
-1

Is IC50 strictly under 0.07 µM for the entry COCC(=O)N1CCC(c2ccc(Nc3nc(-c4cncc(OC)n4)cc4cc[nH]c(=O)c34)cc2C)CC1 [compound 49] ?
-1

Is IC50 strictly under 0.07 µM for the entry CCN1CCN(c2n[nH]c3cc(Nc4nc(-c5cncc(C(=O)N6CCOCC6)c5)cc5cc[nH]c(=O)c45)ccc23)CC1 [compound 206] ?
1

Is IC50 strictly under 0.07 µM for the entry Cc1cc(Nc2nc(-c3ccc(N(C)C)nc3)cc3cc[nH]c(=O)c23)ccc1C1CCN(C2CC2)CC1 [compound 218] ?
-1

Is IC50 strictly under 0.07 µM for the entry Cc1ccc(-c2cc3cc[nH]c(=O)c3c(Nc3ccc(C4CN(C)C4)cc3)n2)cn1 [compound 140] ?
1
